measurementTarget: human P2X3 receptor (Homo sapiens (Human), UniProt P56373)
Sequence (P56373 whole entry): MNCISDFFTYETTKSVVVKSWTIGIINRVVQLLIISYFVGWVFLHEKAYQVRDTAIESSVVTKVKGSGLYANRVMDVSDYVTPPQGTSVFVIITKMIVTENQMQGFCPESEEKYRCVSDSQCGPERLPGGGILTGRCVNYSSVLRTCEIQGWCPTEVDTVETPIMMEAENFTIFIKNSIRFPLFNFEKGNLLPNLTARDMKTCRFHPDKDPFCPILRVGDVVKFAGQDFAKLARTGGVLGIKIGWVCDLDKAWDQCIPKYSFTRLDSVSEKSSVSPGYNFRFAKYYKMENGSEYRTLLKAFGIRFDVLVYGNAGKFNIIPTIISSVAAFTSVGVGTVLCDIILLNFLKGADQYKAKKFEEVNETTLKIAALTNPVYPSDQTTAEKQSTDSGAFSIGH
protocolDetails: Evaluation of human P2X3 receptor inhibitory activity (Fluo-3 calcium fluorescence, FDSS 3000, ATP stimulation);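 also: stimulus was 50 nM ATP with fluorescence followed for 3 min, and the response per well was peak post-ATP fluorescence divided by the reading at measurement start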
Type: cell-based
particulars: C6BU-1 cells stably expressing human P2X3 receptor, Fluo-3 fluorescence, FDSS 3000
pIC50: −log10 of the molar value.
quantityName: pIC50

> print(dat)
                                   molecule  reportedvalue
1  Cc1cc(/N=c2\[nH]c(=O)n(CC(=O)C(=O)O)c(=O)n2Cc2ccc(Cl)cc2)ccc1OC(C)C [Compound I-1009]           7.16
2  COC(=O)[C@@H](C)Cn1c(=O)[nH]/c(=N\c2ccc(C3CCCC3)cc2)n(Cc2ccc(C)cc2)c1=O [Compound I-1090]           6.87
3  Cc1ccc(Cn2c(=O)n(CC3(C(=O)O)CC3)c(=O)[nH]/c2=N\c2ccc(OCC3CC3)cc2)cc1 [Compound I-0915]           7.12
4  COC(=O)[C@@H](C)Cn1c(=O)[nH]/c(=N\c2ccc(OC3CCCCC3)nc2)n(Cc2ccc(C)cc2)c1=O [Compound I-1184]           6.86
